Target: alpha-mannosidase (Canavalia ensiformis)
Experiment: Binding affinity towards alpha-Mannosidase isolated from Jack bean
pKi: −log10 of the molar value.

{"COMPOUND": "OCC(NC[C@H]1N[C@H](CO)[C@H](O)[C@@H]1O)c1ccccc1 (some centres not stated)", "pKi": 5.87}
{"COMPOUND": "O[C@H]1[C@@H](O)CN[C@@H]1CNC1CCc2ccccc21 (some centres not stated)", "pKi": 5.64}

* * *

Target: alpha-mannosidase (Canavalia ensiformis)
Assay: Inhibition of alpha-Mannosidase isolated from Jack bean

{"COMPOUND": "O[C@H]1[C@@H](O)CN[C@@H]1CNC(COCc1ccccc1)c1ccccc1 (stereo partly specified)", "TARGET OR TEST SYSTEM": "alpha-mannosidase (Canavalia ensiformis)", "SCALE UNIT": "µM", "IC50": 58}

* * *

Molecular target: alpha-mannosidase (Canavalia ensiformis)
Test: Concentration of compound inhibiting alpha-Mannosidase isolated from Jack bean
Decision: IC50 beneath 100 µM gives YES; IC50 meeting or exceeding 100 µM gives NO.

{"COMPOUND": "O[C@H]1[C@@H](O)CN[C@@H]1CN[C@H](c1ccccc1)[C@@H](O)c1ccccc1", "CLASS LABEL": "NO"}
{"COMPOUND": "OCC(NC[C@H]1N[C@H](CO)[C@H](O)[C@@H]1O)c1ccccc1 (stereo not given in full)", "CLASS LABEL": "YES"}
{"COMPOUND": "O=C(NCC(NC[C@H]1NC[C@H](O)[C@@H]1O)c1ccccc1)c1cccc(Br)c1 (stereo not given in full)", "CLASS LABEL": "YES"}
{"COMPOUND": "O[C@H]1[C@@H](O)CN[C@@H]1CNC1CCc2ccccc21 (stereo not given in full)", "CLASS LABEL": "YES"}
{"COMPOUND": "O[C@H]1[C@@H](O)CN[C@@H]1CN[C@@H](c1ccccc1)[C@H](O)c1ccccc1", "CLASS LABEL": "NO"}

* * *

Target: alpha-mannosidase (Canavalia ensiformis)
Experiment: Binding affinity towards alpha-Mannosidase isolated from jack bean
pKi: −log10 of the molar value.
QUANTITY KIND: pKi

{"COMPOUND": "O[C@H]1[C@@H](O)CN[C@@H]1CNC(COCc1ccccc1)c1ccccc1 (stereo partly specified)", "RESULT NUMBER": 4.80}
